- Tested on: Brain
- experimental-protocol: Inhibition of Fe2+-induced lipid peroxidation in rat brain homogenate
- Assay type: functional, tissue-based
pIC50: −log10 of the molar value.
measured-property: pIC50

Consider the reported pIC50 for these molecules:
structure-as-smiles	recorded-result
CCC(=O)OCCOC(=O)C1=C[C@]2(CC)CCCN3CCc4c(n1c1ccccc41)[C@H]32	4.68
CCOC(=O)C1=C[C@@]2(CC)CCCN3CCc4c(n1c1ccccc41)[C@@H]32	4.87

[a] CC[C@@]12C=C(C(=O)OCCO)n3c4c(c5ccccc53)CCN(CCC1)[C@@H]42
[b] CC[C@@]12C=C(C(=O)[O-])n3c4c(c5ccccc53)CCN(CCC1)[C@@H]42.[Na+]
input: In the pair a and b , the larger recorded pIC50 belongs to which? Answer format: the label of the selected item.
output: a
(a: 4.86, b: 3.62)
